Data provenance is ChEMBL document CHEMBL1156209.

- systemName: Adenosine receptor A1 (Homo sapiens, UniProt P30542)
- measurementDescription: Enhancement of [3H]CCPA binding to human adenosine A1 receptor expressed in CHO cells by scintillation counting
observedProperty: EC50 (µM)

Nc1sc2c(c1C(=O)c1ccc(Cl)c(Cl)c1)CCN(CCCCCOc1ccc([N+](=O)[O-])cc1)C2
5.2

(A) Nc1sc2c(c1C(=O)c1ccc(Cl)c(Cl)c1)CCN(CCCOc1ccc([N+](=O)[O-])cc1)C2
(B) Nc1sc2c(c1C(=O)c1ccc(Cl)c(Cl)c1)CCN(CCOc1ccc([N+](=O)[O-])cc1)C2
// query Among A and B , which shows a numerically higher EC50 result? Answer format: the label of the selected item.
// result B

* * *

- systemName: Adenosine receptor A1 (Homo sapiens)
- measurementDescription: Displacement of […] from human adenosine A1 receptor expressed in CHO cells by scintillation counting in presence of 10 uM allosteric modulator PD-81723
- Type: cell-based
- conditionSet: read-out: pKi (converted)
observedProperty: Ki (nM)

Consider the reported Ki for these compounds:
Nc1sc2c(c1C(=O)c1ccc(Cl)c(Cl)c1)CCN(CCCOc1ccc(Nc3ncnc4c3ncn4[C@@H]3O[C@H](CO)[C@@H](O)[C@H]3O)cc1)C2
245
Nc1sc2c(c1C(=O)c1ccc(Cl)c(Cl)c1)CCN(CCCCCCCCCCOc1ccc(Nc3ncnc4c3ncn4[C@@H]3O[C@H](CO)[C@@H](O)[C@H]3O)cc1)C2
1290

(A) Nc1sc2c(c1C(=O)c1ccc(Cl)c(Cl)c1)CCN(CCCCCOc1ccc(Nc3ncnc4c3ncn4[C@@H]3O[C@H](CO)[C@@H](O)[C@H]3O)cc1)C2
(B) Nc1sc2c(c1C(=O)c1ccc(Cl)c(Cl)c1)CCN(CCCCCCOc1ccc(Nc3ncnc4c3ncn4[C@@H]3O[C@H](CO)[C@@H](O)[C@H]3O)cc1)C2
// query Of A and B , which carries the smaller reported Ki figure? Answer format: the label of the selected item.
// result A

(P) Nc1sc2c(c1C(=O)c1ccc(Cl)c(Cl)c1)CCN(CCCCCCCCOc1ccc(Nc3ncnc4c3ncn4[C@@H]3O[C@H](CO)[C@@H](O)[C@H]3O)cc1)C2
(Q) COc1ccc(Nc2ncnc3c2ncn3[C@@H]2O[C@H](CO)[C@@H](O)[C@H]2O)cc1
// query Of P and Q , which carries the smaller reported Ki figure? Answer format: the label of the selected item.
// result Q

* * *

- systemName: Adenosine receptor A1 (Homo sapiens)
- measurementDescription: Displacement of […] from human adenosine A1 receptor expressed in CHO cells by scintillation counting relative to control
- Format: cell-based
- Set-up: concentration or dose not given beside the values
observedProperty: Activity (%)

Consider the reported Activity for these molecules:
Nc1sc2c(c1C(=O)c1ccc(Cl)c(Cl)c1)CCN(CCCCCCCOc1ccc(Nc3ncnc4c3ncn4[C@@H]3O[C@H](CO)[C@@H](O)[C@H]3O)cc1)C2
91
Nc1sc2c(c1C(=O)c1ccc(Cl)c(Cl)c1)CCN(CCCCCCCCCOc1ccc(Nc3ncnc4c3ncn4[C@@H]3O[C@H](CO)[C@@H](O)[C@H]3O)cc1)C2
83

(1) COc1ccc(Nc2ncnc3c2ncn3[C@@H]2O[C@H](CO)[C@@H](O)[C@H]2O)cc1
(2) Nc1sc2c(c1C(=O)c1ccc(Cl)c(Cl)c1)CCN(CCCCCCCCCCOc1ccc(Nc3ncnc4c3ncn4[C@@H]3O[C@H](CO)[C@@H](O)[C@H]3O)cc1)C2
// query Among 1 and 2 , which shows a numerically higher Activity result? Answer format: the label of the selected item.
// result 1

* * *

- systemName: Adenosine receptor A1 (Homo sapiens)
- Sequence (P30542 whole entry): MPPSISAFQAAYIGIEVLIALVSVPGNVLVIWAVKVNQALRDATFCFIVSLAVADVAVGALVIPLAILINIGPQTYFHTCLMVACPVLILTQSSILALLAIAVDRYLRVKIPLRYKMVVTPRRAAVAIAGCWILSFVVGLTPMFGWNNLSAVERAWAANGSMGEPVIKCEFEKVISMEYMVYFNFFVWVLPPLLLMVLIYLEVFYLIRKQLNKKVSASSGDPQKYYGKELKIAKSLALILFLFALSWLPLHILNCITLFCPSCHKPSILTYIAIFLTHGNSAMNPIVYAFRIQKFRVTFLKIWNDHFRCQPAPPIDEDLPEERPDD
- measurementDescription: Agonist activity at human adenosine A1 receptor expressed in CHO cells assessed as stimulation of ERK1/2 phosphorylation in presence of 10 uM allosteric modulator PD-81723
- Format: functional, cell-based
- conditionSet: read-out: EC50
observedProperty: EC50 (nM)

(1) Nc1sc2c(c1C(=O)c1ccc(Cl)c(Cl)c1)CCN(CCCCCOc1ccc(Nc3ncnc4c3ncn4[C@@H]3O[C@H](CO)[C@@H](O)[C@H]3O)cc1)C2
(2) Nc1sc2c(c1C(=O)c1ccc(Cl)c(Cl)c1)CCN(CCCCCCCCCOc1ccc(Nc3ncnc4c3ncn4[C@@H]3O[C@H](CO)[C@@H](O)[C@H]3O)cc1)C2
(3) COc1ccc(Nc2ncnc3c2ncn3[C@@H]2O[C@H](CO)[C@@H](O)[C@H]2O)cc1
// query Sort by EC50, descending. Give the labels in the order specified.
// result 2, 1, 3
